Test: Human HepG2 cell viability assay in 384 well format
Type: toxicity, cell-based
Set-up: dose 125 nL, time 70.5 hour; concentration not given beside the values
Conditions: HepG2 cells, read-out: Inhibition
measure: cytotoxicity at 70.5 h (%)
Field: numeric (%). Do not append units.

The cases that follow already have their cytotoxicity at 70.5 h on record.
CNC(=O)c1cccc(CNC(=O)C2CC(=O)N(CCN(C)C)C2)c1 (configuration not stated)
-5.17
COCCN(Cc1ccc(F)cc1Cl)C(=O)c1cccc[n+]1[O-]
-0.551
Cc1ccccc1CC(=O)NS(=O)(=O)c1cccc2cnccc12
-40.8
O=C(NC1CC1)C1(Cc2ccccc2-c2ccncc2)CCOCC1
7.42
Cc1nc(C2CCCN2C(=O)c2csc3c2CCCC3)no1 (configuration not stated)
-1.72

Tell me cytotoxicity at 70.5 h reported for CNC(=O)NC(=O)CCN1CCN(c2ccc(C(=O)OC)cc2)CC1C (configuration not stated)
-9.55

Indicate its recorded cytotoxicity at 70.5 h; the molecule in question is "C[C@H]1C[C@@H]2CCN(C(=O)c3cnccn3)C[C@H]2O1"
-8.48

---

Assay: Human HepG2 cell viability assay in 384 well format
Format: toxicity, cell-based
Set-up: dose 125 nL, time 70.5 hour; concentration not given beside the values
Conditions: HepG2 cells, read-out: Inhibition
measure: cytotoxicity at 70.5 h (%)
Number only, in %; omit the unit.

Study these solved cases before continuing.
Cc1ccc([C@@H]2CN(C(=O)c3ccc[nH]3)C[C@H]2NC(=O)C2CC2)cc1
-8.09
COc1ccc(NC(=O)Cn2nc(C)c(C)cc2=O)cc1Cl
0.971
O=C(Cn1cccc1)NCC1CCN(Cc2cc3ccccc3[nH]2)C1 (stereo not drawn)
-16.5
O=S(=O)(C1CC1)N1CCC[C@]2(C[C@@H](Oc3ccccn3)CO2)C1
14.1
Cc1nc(NCCc2noc(C3CCCO3)n2)c2sccc2n1 (stereo not drawn)
49.7

State its cytotoxicity at 70.5 h for this compound: "O=C(c1cnccn1)N1C[C@@H](OCc2ccncc2)[C@@H]2OCCC[C@@H]21"
-8.9

Identify measured cytotoxicity at 70.5 h corresponding to CC(C(=O)N1CCCN(c2ccc(C#N)cc2)CC1)n1cccn1 (stereo not drawn)
-3.9

Provide measured cytotoxicity at 70.5 h value, entry: "O=C(NC1CC1)N1Cc2[nH]nc(COCC3CC3)c2C1"
-7.86

---

Assay: Human HepG2 cell viability assay in 384 well format
Type: toxicity, cell-based
Parameters: dose 125 nL, time 70.5 hour; concentration not given beside the values
Conditions: HepG2 cells, read-out: Inhibition
measure: cytotoxicity at 70.5 h (%)
Answer format: numeric, % implied, no suffix.

Worked examples, 5 compounds total:
Cn1cc(CCCNC(=O)NCC(O)c2ccsc2)cn1 (configuration not stated)
-2.64
CCNC(=O)CNS(=O)(=O)c1cc(Br)ccc1F
-2.68
CC(C)CC(=O)N1CC(=O)c2sc(NCCc3ccccc3)nc2C1
0.452
O=C(CNc1nc(C(F)(F)F)cs1)N1CCc2sccc2C1
-8.73
CN1CCC2(CC1)OC(C(=O)NCc1cccnc1)Cn1ccnc12 (configuration not stated)
-11.2

Return reported cytotoxicity at 70.5 h. Input compound: "O=S(=O)(Nc1cnc(N2CCCC2)nc1)c1ccc(F)cc1F"
-6.31

Give the value of cytotoxicity at 70.5 h reported for the following: Cn1ccc(N2CCCC(NC(=O)c3ccc(Cl)o3)C2=O)n1 (configuration not stated)
-10.2

Identify the reported cytotoxicity at 70.5 h for the following entry. "Cc1nc(CN2CCN(C(=O)c3scnc3C)CC2)cs1"
-3.33

---

Reported cytotoxicity at 70.5 h values are given for each entry in this list.
Assay: Human HepG2 cell viability assay in 384 well format
Assay type: toxicity, cell-based
Set-up: dose 125 nL, time 70.5 hour; concentration not given beside the values
Details: HepG2 cells, read-out: Inhibition
Respond with the bare value in %.

Worked cases, answers included:
COCCN(C(=O)c1nc(-c2ccco2)sc1C)C1CC1
-2.88
O=C(c1ccc2[nH]cnc2c1)N1CCC(COc2ccccn2)CC1
-5.85
CC(NC(=O)CSCC#N)c1ccccc1 (configuration not stated)
6.84

Item "Cc1ccc(S(=O)(=O)Nc2cnn(C3CCOCC3)c2)cc1C" : provide cytotoxicity at 70.5 h
2.28

# return recorded cytotoxicity at 70.5 h for entry "CC(C)(O)CCc1ccc(C(=O)N2CCN(CC3CCCC3)CC2)cc1"
4.24

Respond only with cytotoxicity at 70.5 h recorded for CCN(C)S(=O)(=O)NCC(O)c1cc2ccccc2s1 (configuration not stated)
-0.185

Give cytotoxicity at 70.5 h for COc1cccc2c1OCC(C(=O)NCc1ncc3c(n1)CCC3)C2 (configuration not stated)
-9.1

Give cytotoxicity at 70.5 h for "CC(C)c1nn(C)c(Cl)c1CNCc1cccnc1N(C)C"
-9.54

Return cytotoxicity at 70.5 h for the following molecule: N#Cc1ccnc(N2CCN(C3CCOC3=O)CC2)c1 (configuration not stated)
14.2

Input "Cc1ccc(Oc2ncccc2CNC2CCOCC2)cn1" , output reported cytotoxicity at 70.5 h.
-7.51

Entry "CN(C)CCn1c(=O)oc2ccc(NC(=O)CC(C)(C)C)cc21" needs its cytotoxicity at 70.5 h filled in; supply it.
-6.79

Quote cytotoxicity at 70.5 h reported for "O=C(CC1CC1)N1CCC2(CC1)CN(Cc1cccnc1)C(=O)CO2" please.
-12.2

Determine its reported cytotoxicity at 70.5 h: "O=C(NCc1ccco1)c1cccc(C(=O)NCc2ccco2)n1"
-20.3

Please list cytotoxicity at 70.5 h recorded for the molecule "CCn1nc2c(cc1=O)CN(c1nc3ccccc3s1)CC2"
16.9

Give the value of cytotoxicity at 70.5 h reported for the following: "CCCNC(=O)Cc1c(C)nc2c(c1C)c(=O)[nH]n2C"
1.36

Identify the reported cytotoxicity at 70.5 h for the following entry. "CCN(Cc1nc2c(cnn2C)c(=O)[nH]1)Cc1ccco1"
-13.6

Let me know recorded cytotoxicity at 70.5 h for "CSCC[C@@H](CO)Nc1nc(-c2ccccn2)nc2c1c(C)nn2C" , thanks.
-0.626

Provide one value: measured cytotoxicity at 70.5 h of CN(C)c1ccc2c(c1)CN(C(=O)c1c[nH]cn1)C2c1cnco1 (configuration not stated)
29.3

Specify cytotoxicity at 70.5 h for Cc1ccc(CN2C(=O)OCC2CO)c2ccccc12 (configuration not stated) and stop.
-6.41

Look up cytotoxicity at 70.5 h of "CC(C)c1n[nH]c(C(=O)Nc2ccccn2)c1Br" and report it.
12.4

Give the measured cytotoxicity at 70.5 h for COc1ccc2c(c1)CCCC2CC(=O)NCC(=O)O (configuration not stated)
-4.55

Give me measured cytotoxicity at 70.5 h, please, for this molecule: "COCCn1cnnc1Cn1ccnc1-c1ccoc1"
27.2

Return value of cytotoxicity at 70.5 h for input "CN(C)C(=O)c1cccc(CCNS(C)(=O)=O)c1" , no commentary.
-2.26

Quickly give me recorded cytotoxicity at 70.5 h for "O=C1[C@H]2CN(Cc3ccc(F)cc3)C[C@H]2CN1CCN1CCCC1"
12.5

# return recorded cytotoxicity at 70.5 h for input COc1cc2cc(C(=O)NC(C)C(=O)O)n(C)c2c(OC)c1OC (configuration not stated)
-7.07

Identify measured cytotoxicity at 70.5 h corresponding to "CCC(=O)Nc1ccc(F)c(S(=O)(=O)NC(C)(C)C)c1"
8.07

---

Below, each entry is listed alongside its reported cytotoxicity at 70.5 h.
Assay: Human HepG2 cell viability assay in 384 well format
Format: toxicity, cell-based
Set-up: dose 125 nL, time 70.5 hour; concentration not given beside the values
Details: HepG2 cells, read-out: Inhibition
Report as a plain number; the unit % is understood.

CCOCC(=O)N1Cc2nccn2CC(CN2CCCC2)C1 (stereo unspecified)
-11.5
CC(C)(CN1CCOCC1)CN1CCC(Cc2cccc(CO)c2)C1 (stereo unspecified)
17.8
Cc1sc2nc(C(F)(F)F)nc(N3CCCN(C)CC3)c2c1C
22.1
Cc1cn2c(n1)CCC(NC(=O)c1ccc(CS(C)(=O)=O)o1)C2 (stereo unspecified)
-2.86
CC1(C(=O)NCc2ccsc2)CCOCC1
-8.16

Consider now this further compound.
Hello, please tell me recorded cytotoxicity at 70.5 h for this one: Cc1cc(-c2cc(C3CCOC3)c(C#N)c(N)n2)ccc1Cl (stereo unspecified)
-10.8

---

Assay: Human HepG2 cell viability assay in 384 well format
Assay type: toxicity, cell-based
Parameters: dose 125 nL, time 70.5 hour; concentration not given beside the values
Details: HepG2 cells, read-out: Inhibition
measure: cytotoxicity at 70.5 h (%)
Your answer should be a plain number; it is taken to be in %.

Below are worked cases with known answers.
CC(C)C[C@H](N)c1nnc(SCC(=O)Nc2ccc(Br)cc2)o1
-5.07
NC(=O)c1cc(C2CCCN(CCCOc3ccccc3)C2)n[nH]1 (stereo unspecified)
-10.9
COCC1CN(Cc2cnn(C)c2)Cc2nn(C)cc21 (stereo unspecified)
-11.4
OC1(CN2CCc3nnc(Cc4cccnc4)n3CC2)CCCNC1 (stereo unspecified)
-4.53

Answer with the recorded cytotoxicity at 70.5 h for the compound listed here: "Cc1ccc(-n2c(SCC(=O)O)nnc2-c2ccccc2)cc1"
-7.44

Annotate the compound CCOc1cc(C(=O)N2CCCC(c3cc(C(N)=O)[nH]n3)C2)ccn1 (stereo unspecified) with its measured cytotoxicity at 70.5 h.
-7.42
